Numbers sourced from patent US11066396B2.

Recorded measurements of IC50, one per entry
Target: HDAC1 (Homo sapiens (Human), UniProt Q13547)
Sequence (Q13547 whole entry): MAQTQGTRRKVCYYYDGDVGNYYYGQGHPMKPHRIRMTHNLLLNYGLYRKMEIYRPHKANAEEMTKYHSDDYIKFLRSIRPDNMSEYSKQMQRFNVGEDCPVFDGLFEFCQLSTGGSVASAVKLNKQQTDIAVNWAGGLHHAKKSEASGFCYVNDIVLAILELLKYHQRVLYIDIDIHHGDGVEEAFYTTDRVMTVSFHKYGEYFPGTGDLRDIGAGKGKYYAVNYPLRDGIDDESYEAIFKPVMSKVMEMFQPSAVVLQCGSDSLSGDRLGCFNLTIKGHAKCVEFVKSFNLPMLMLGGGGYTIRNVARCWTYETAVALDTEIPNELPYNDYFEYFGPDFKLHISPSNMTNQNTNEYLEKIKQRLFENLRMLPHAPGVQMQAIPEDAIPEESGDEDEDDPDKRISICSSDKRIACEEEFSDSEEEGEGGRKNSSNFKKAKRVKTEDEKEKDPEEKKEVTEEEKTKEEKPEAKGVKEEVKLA
# output: bare number, implied unit nM

Some solved entries appear below for comparison.
| compound | IC50 / nM |
| --- | --- |
| O=C(C1CCS(=O)(=O)CC1)N(Cc1ccc(-c2noc(C(F)(F)F)n2)nn1)c1cccc(C(F)(F)F)c1 | 1100 |
| Cc1noc([C@@H]2CCC(=O)N2c2ccc(-c3noc(C(F)(F)F)n3)c(F)c2)n1 | 3300 |
| Fc1ccc2ccc(OCc3ccc(-c4noc(C(F)(F)F)n4)cn3)nc2c1 | 35000 |
| Fc1ccc(OCc2ccc(-c3noc(C(F)(F)F)n3)c(F)c2)cn1 | 12000 |

Please look at the following compound next.
Exercise: API: value(readout=IC50, system=HDAC1 (Homo sapiens (Human), UniProt Q13547)) for record OCc1ccnc(NCc2ccc(-c3noc(C(F)(F)F)n3)cn2)c1
Key: 820

* * *

List of pIC50 tested on HDAC1 (Homo sapiens (Human)).
Give only the number. pIC50 is defined as minus log10 of concentration in molar units.

| compound | pIC50 |
| --- | --- |
| O=C([C@@H]1CCC(=O)N1c1cc(F)c(-c2noc(C(F)(F)F)n2)cc1F)N1CCC1 | 4.39 |
| CCc1nnc([C@@H]2CCC(=O)N2c2cc(F)c(-c3noc(C(F)(F)F)n3)cc2F)o1 | 6.15 |
| CC(C)(C(=O)N(Cc1ccc(-c2noc(C(F)(F)F)n2)cn1)c1cccc(F)c1)n1cccn1 | 5.85 |

Exercise: Observed pIC50 on HDAC1 (Homo sapiens (Human)) for Cc1nc(Cl)cnc1COc1ccc(-c2noc(C(F)(F)F)n2)cn1 , please.
Key: 5.64

Exercise: Reported pIC50 for HDAC1 (Homo sapiens (Human)), given FC(F)(F)c1nc(-c2ccc(CNC3CCN(c4ccccn4)CC3)nc2)no1 ?
Key: 5.72

Exercise: Record COc1ccccc1C1CCC(=O)N1c1ccc(-c2noc(C(F)(F)F)n2)cc1F (racemic) : what is its pIC50 with HDAC1 (Homo sapiens (Human))?
Key: 5.68

Exercise: State its pIC50 on HDAC1 (Homo sapiens (Human)): Fc1cc(COc2cccc3[nH]nnc23)ccc1-c1noc(C(F)(F)F)n1
Key: 5.82

Exercise: Return pIC50 measured with HDAC1 (Homo sapiens (Human)) given this compound: CN(C(=O)[C@@H]1COCC(=O)N1c1ccc(-c2noc(C(F)(F)F)n2)c(F)c1)C(C)(C)C
Key: 5.16

Exercise: Lookup: pIC50 / HDAC1 (Homo sapiens (Human)) / NC(=O)c1ncccc1NCc1ccc(-c2noc(C(F)(F)F)n2)cn1
Key: 6.07

* * *

What follows is a record of log10(IC50) for HDAC1 (Homo sapiens (Human)).
For clarity, the numbers are log10 values of IC50 expressed in nM.

These recorded examples may help you get a feel for the data.
| compound | log10(IC50) |
| --- | --- |
| Cc1ncc(C(=O)N(Cc2ccc(-c3noc(C(F)(F)F)n3)cn2)c2cccc(F)c2)cn1 [Example 401] | 2.46 |
| Cc1n[nH]c(CC(=O)N(Cc2ccc(-c3noc(C(F)(F)F)n3)cn2)c2cccc(F)c2)n1 [Example 393] | 2.61 |
| Cc1nc(OCc2ccc(-c3noc(C(F)(F)F)n3)c(F)c2)c2cnn(C)c2n1 [Example 248] | 3.41 |
| FC(F)(F)c1nc(-c2ccc(CNc3cnccn3)cc2)no1 [Example 417] | 3.41 |
| Cn1c(OCc2ccc(-c3noc(C(F)(F)F)n3)c(F)c2)nc2ccccc21 [Example 235] | 2.72 |

Exercise: Please provide the recorded log10(IC50) for CC(C)(C)OC(=O)[C@@H]1CCC(=O)N1c1ccc(-c2noc(C(F)(F)F)n2)cc1F [Example 125] , tested on HDAC1 (Homo sapiens (Human)).
Key: 2.63

Exercise: Value wanted: log10(IC50) (HDAC1 (Homo sapiens (Human))) of entry CN(C)CC(=O)N(Cc1ccc(-c2noc(C(F)(F)F)n2)cc1)c1cccc(C(F)(F)F)c1 [Example 83]
Key: 3.08

Exercise: Please provide the recorded log10(IC50) for Cc1cc(CC(=O)N(Cc2ccc(-c3noc(C(F)(F)F)n3)cn2)c2cccc(F)c2)on1 [Example 59] , tested on HDAC1 (Homo sapiens (Human)).
Key: 2.32

* * *

Measured log10(IC50) (HDAC8 (Homo sapiens (Human)))
In our notation, the value equals log10 of IC50 in µM.

As a guide, the following entries are already answered.
| molecule | log10(IC50) |
| --- | --- |
| CC(C)N1CCC(NCc2ccc(-c3noc(C(F)(F)F)n3)cn2)C1=O (racemic) | 0.66 |
| Cn1ccc(CN(Cc2ccc(-c3noc(C(F)(F)F)n3)cc2)c2cccc(C(F)(F)F)c2)n1 | 1.48 |

Exercise: Which log10(IC50) reading was recorded for the molecule O=C1COc2ccccc2N1Cc1ccc(-c2noc(C(F)(F)F)n2)cn1 ?
Key: 0.38

Exercise: Can you share its log10(IC50)? I mean this molecule: FC(F)(F)c1nc(-c2ccc(N3CCOCC3c3ccccc3Cl)nc2)no1 (centres unmarked)
Key: 0.18

Exercise: Item under review: O=C(Nc1ccccc1)c1cccc(NCc2ccc(-c3noc(C(F)(F)F)n3)cn2)c1 . Reported log10(IC50)?
Key: -0.55

Exercise: Need log10(IC50) of O=C1COC[C@@H](c2ccccc2)N1c1ccc(-c2noc(C(F)(F)F)n2)nn1 , thanks.
Key: 1.32

Exercise: Given the entry O=C(C1CCS(=O)(=O)CC1)N(Cc1ccc(-c2noc(C(F)(F)F)n2)cn1)c1cccc(F)c1 , report its measured log10(IC50).
Key: 0.36

Exercise: I would be grateful if you could share the reported log10(IC50) for CCOC(=O)N1CCN(c2ccc(-c3noc(C(F)(F)F)n3)cn2)C(c2ccccc2)C1 (racemic) .
Key: 0.60

* * *

These records show pIC50 for HDAC1 (Homo sapiens (Human), UniProt Q13547).
Schema: pIC50 number; meaning minus log10 of the concentration expressed in molar units.

| molecule | system-name | data-value |
| --- | --- | --- |
| FC(F)(F)c1nc(-c2ccnc(OCc3cnc(Cl)cn3)c2)no1 | HDAC1 (Homo sapiens (Human), UniProt Q13547) | 5.85 |
| COc1cnnc(OCc2ccc(-c3noc(C(F)(F)F)n3)c(F)c2)c1 | HDAC1 (Homo sapiens (Human), UniProt Q13547) | 5.23 |

Exercise: Request - read-out pIC50 | tested on HDAC1 (Homo sapiens (Human), UniProt Q13547) | molecule Fc1cc(COc2nccc3nccn23)ccc1-c1noc(C(F)(F)F)n1
Key: 5.54

Exercise: Can you look up pIC50 on HDAC1 (Homo sapiens (Human), UniProt Q13547) for Fc1cc(COc2cccc3c2CNCC3)ccc1-c1noc(C(F)(F)F)n1 ?
Key: 5.25

Exercise: Fill in the recorded pIC50 for this molecule, with HDAC1 (Homo sapiens (Human), UniProt Q13547) as test system: Fc1ccccc1OCc1cc(-c2noc(C(F)(F)F)n2)ccn1
Key: 5.51

Exercise: I'm curious: which pIC50 was measured for O=c1ccc2cnccc2n1Cc1ccc(-c2noc(C(F)(F)F)n2)cn1 tested on HDAC1 (Homo sapiens (Human), UniProt Q13547)?
Key: 6.55

* * *

Parameter pIC50, tested on HDAC5 (Homo sapiens (Human), UniProt Q9UQL6), listed per item.
Sequence (Q9UQL6 656-1122): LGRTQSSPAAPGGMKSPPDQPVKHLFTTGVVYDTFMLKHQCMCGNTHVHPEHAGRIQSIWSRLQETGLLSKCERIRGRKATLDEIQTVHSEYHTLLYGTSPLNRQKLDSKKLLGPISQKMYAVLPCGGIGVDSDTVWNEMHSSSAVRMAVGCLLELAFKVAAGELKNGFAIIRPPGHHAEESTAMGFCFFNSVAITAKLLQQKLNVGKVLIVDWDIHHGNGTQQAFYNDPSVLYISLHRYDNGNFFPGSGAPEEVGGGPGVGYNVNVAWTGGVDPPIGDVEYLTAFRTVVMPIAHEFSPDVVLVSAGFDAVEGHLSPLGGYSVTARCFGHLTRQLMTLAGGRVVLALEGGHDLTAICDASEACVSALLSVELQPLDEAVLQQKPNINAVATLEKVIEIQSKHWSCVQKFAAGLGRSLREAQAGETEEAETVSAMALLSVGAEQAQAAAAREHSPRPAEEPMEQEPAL
By convention, pIC50 is the negative base-10 log of a molar concentration.

Below: 6 compounds and their reported pIC50.
| compound | pIC50 |
| --- | --- |
| CC(=O)NC(Cc1ccc(-c2noc(C(F)(F)F)n2)cn1)c1cccc(C(F)(F)F)c1 (centres unmarked) | 6.38 |
| Fc1cc(COc2ccc3cccc(F)c3n2)ccc1-c1noc(C(F)(F)F)n1 | 8.15 |
| O=C(C1CCS(=O)(=O)CC1)N(Cc1ccc(-c2noc(C(F)(F)F)n2)nn1)c1cccc(C(F)(F)F)c1 | 5.08 |
| CC(C)(C)OC(=O)N1C[C@@H](c2cc(F)cc(F)c2)N(c2ccc(-c3noc(C(F)(F)F)n3)cn2)C(=O)C1C1CCOCC1 (some centres unmarked) | 6.44 |
| NC(=O)c1cccc(OCc2ccc(-c3noc(C(F)(F)F)n3)c(F)c2)c1 | 7.05 |
| Fc1cc(COc2cnc3c(c2)COC3)ccc1-c1noc(C(F)(F)F)n1 | 6.74 |

Exercise: Form field: pIC50 recorded for Cc1ncc(COc2nccc(-c3noc(C(F)(F)F)n3)c2Cl)c(C)n1 with HDAC5 (Homo sapiens (Human), UniProt Q9UQL6) (enter value)
Key: 6.27

Exercise: Requested read-out pIC50, target or system HDAC5 (Homo sapiens (Human), UniProt Q9UQL6), entry Cn1ccc(COc2nccc(-c3noc(C(F)(F)F)n3)c2Cl)n1
Key: 6.17

Exercise: # value lookup — system HDAC5 (Homo sapiens (Human), UniProt Q9UQL6), readout pIC50, item O=C1NCCc2c(OCc3ccc(-c4noc(C(F)(F)F)n4)cn3)cccc21
Key: 6.10

Exercise: Record lookup: for HDAC5 (Homo sapiens (Human), UniProt Q9UQL6), what pIC50 belongs to O=C(NC1CCOCC1)OCc1ccc(-c2noc(C(F)(F)F)n2)cn1 ?
Key: 6.18

Exercise: Give HDAC5 (Homo sapiens (Human), UniProt Q9UQL6) pIC50 for O=C1CCC(c2ccccc2)N1c1ccc(-c2noc(C(F)(F)F)n2)cc1F (centres unmarked)
Key: 7.57

Exercise: API: value(readout= pIC50, system= HDAC5 (Homo sapiens (Human), UniProt Q9UQL6), query= COc1ncc(OCc2ccc(-c3noc(C(F)(F)F)n3)c(F)c2)cn1 )
Key: 7.16

Exercise: So what pIC50 did CC1(C(=O)NC(Cc2ccc(-c3noc(C(F)(F)F)n3)cn2)c2cccc(C(F)(F)F)c2)COC1 (racemic) get with HDAC5 (Homo sapiens (Human), UniProt Q9UQL6)?
Key: 6.32

Exercise: # returns recorded pIC50 (system: HDAC5 (Homo sapiens (Human), UniProt Q9UQL6)) for Fc1ccc(OCc2ccc(-c3noc(C(F)(F)F)n3)c(F)c2)cn1
Key: 6.92

Exercise: What reported pIC50 corresponds to O=C(N1CCOCC1)N(Cc1ncc(-c2noc(C(F)(F)F)n2)cn1)c1cccc(C(F)(F)F)c1 on HDAC5 (Homo sapiens (Human), UniProt Q9UQL6)?
Key: 6.09

Exercise: I'm curious: which pIC50 was measured for Cc1csc(OCc2ccc(-c3noc(C(F)(F)F)n3)c(F)c2)n1 tested on HDAC5 (Homo sapiens (Human), UniProt Q9UQL6)?
Key: 7.52

Exercise: Short answer please: pIC50, HDAC5 (Homo sapiens (Human), UniProt Q9UQL6), entry Cc1cncnc1OCc1ccc(-c2noc(C(F)(F)F)n2)c(F)c1
Key: 6.89
